Tested on: Phytophthora infestans
experimentNotes: whole plant or invertebrate
Format: in vivo
condition: Table 1; 0.4 ppm a.i.; tomatoes, 3 days after inoculation
measureName: Efficacy in % found (%)
Give the value, in units of %, as a plain number.

[[record]]
compound = "C#CCOc1ccc(CCNC(=O)C(OCC#C)c2ccc(Cl)cc2)cc1OC (stereo not shown)"
targetundertest = "Phytophthora infestans"
valuereported = 84

[[record]]
compound = "CO/C=C(/C(=O)OC)c1ccccc1Oc1cc(Oc2ccccc2C#N)ncn1"
targetundertest = "Phytophthora infestans"
valuereported = 30

[[record]]
compound = "Cc1ccc(C(C)NC(=O)[C@@H](NC(=O)OC(C)C)C(C)C)cc1 (stereo partly shown)"
targetundertest = "Phytophthora infestans"
valuereported = 0


Supply measured Efficacy in % found of O=C(NCc1ncc(C(F)(F)F)cc1Cl)c1c(Cl)cccc1Cl [fluopicolide] in your reply.
18

* * *

Tested on: Phytophthora infestans
experimentNotes: whole plant or invertebrate
Assay type: in vivo
condition: Phytophthora infestans, 72 h, read-out: Efficacy in % found, Table 1; 0.4 ppm a.i.; tomatoes, 3 days after inoculation
measureName: pest or weed control at 0.4 ppm (%)
Give the value, in units of %, as a plain number.

Some solved entries appear below for comparison.
[[record]]
compound = "C[C@@]1(c2ccc(Oc3ccccc3)cc2)OC(=O)N(Nc2ccccc2)C1=O (racemic)"
valueunits = "%"
valuereported = 23

[[record]]
compound = "CSC1=N[C@@](C)(c2ccccc2)C(=O)N1Nc1ccccc1"
valueunits = "%"
valuereported = 57

[[record]]
compound = "COc1ccc(C(=CC(=O)N2CCOCC2)c2ccc(Cl)cc2)cc1OC"
valueunits = "%"
valuereported = 41

[[record]]
compound = "CCC(C)(NC(=O)c1cc(Cl)c(C)c(Cl)c1)C(=O)CCl (centres unmarked) [zoxamide]"
valueunits = "%"
valuereported = 16

[[record]]
compound = "Cc1ccc(-c2c(Cl)nc(C#N)n2S(=O)(=O)N(C)C)cc1"
valueunits = "%"
valuereported = 49

[[record]]
compound = "CO/N=C(/C1=NOCCO1)c1ccccc1Oc1ncnc(Oc2ccccc2Cl)c1F"
valueunits = "%"
valuereported = 36

[[record]]
compound = "C#CCCOC(=O)Nc1cccc(CO/N=C(/c2ccccc2)c2nnnn2C)n1"
valueunits = "%"
valuereported = 16


Next compound, please.
Supply measured pest or weed control at 0.4 ppm of COC(=O)N(OC)c1ccccc1COc1ccn(-c2ccc(Cl)cc2)n1 in your reply.
28
